- Target Entity: TTBK1 (Homo sapiens, UniProt Q5TCY1)
- Sequence (Q5TCY1 whole entry, species assumed): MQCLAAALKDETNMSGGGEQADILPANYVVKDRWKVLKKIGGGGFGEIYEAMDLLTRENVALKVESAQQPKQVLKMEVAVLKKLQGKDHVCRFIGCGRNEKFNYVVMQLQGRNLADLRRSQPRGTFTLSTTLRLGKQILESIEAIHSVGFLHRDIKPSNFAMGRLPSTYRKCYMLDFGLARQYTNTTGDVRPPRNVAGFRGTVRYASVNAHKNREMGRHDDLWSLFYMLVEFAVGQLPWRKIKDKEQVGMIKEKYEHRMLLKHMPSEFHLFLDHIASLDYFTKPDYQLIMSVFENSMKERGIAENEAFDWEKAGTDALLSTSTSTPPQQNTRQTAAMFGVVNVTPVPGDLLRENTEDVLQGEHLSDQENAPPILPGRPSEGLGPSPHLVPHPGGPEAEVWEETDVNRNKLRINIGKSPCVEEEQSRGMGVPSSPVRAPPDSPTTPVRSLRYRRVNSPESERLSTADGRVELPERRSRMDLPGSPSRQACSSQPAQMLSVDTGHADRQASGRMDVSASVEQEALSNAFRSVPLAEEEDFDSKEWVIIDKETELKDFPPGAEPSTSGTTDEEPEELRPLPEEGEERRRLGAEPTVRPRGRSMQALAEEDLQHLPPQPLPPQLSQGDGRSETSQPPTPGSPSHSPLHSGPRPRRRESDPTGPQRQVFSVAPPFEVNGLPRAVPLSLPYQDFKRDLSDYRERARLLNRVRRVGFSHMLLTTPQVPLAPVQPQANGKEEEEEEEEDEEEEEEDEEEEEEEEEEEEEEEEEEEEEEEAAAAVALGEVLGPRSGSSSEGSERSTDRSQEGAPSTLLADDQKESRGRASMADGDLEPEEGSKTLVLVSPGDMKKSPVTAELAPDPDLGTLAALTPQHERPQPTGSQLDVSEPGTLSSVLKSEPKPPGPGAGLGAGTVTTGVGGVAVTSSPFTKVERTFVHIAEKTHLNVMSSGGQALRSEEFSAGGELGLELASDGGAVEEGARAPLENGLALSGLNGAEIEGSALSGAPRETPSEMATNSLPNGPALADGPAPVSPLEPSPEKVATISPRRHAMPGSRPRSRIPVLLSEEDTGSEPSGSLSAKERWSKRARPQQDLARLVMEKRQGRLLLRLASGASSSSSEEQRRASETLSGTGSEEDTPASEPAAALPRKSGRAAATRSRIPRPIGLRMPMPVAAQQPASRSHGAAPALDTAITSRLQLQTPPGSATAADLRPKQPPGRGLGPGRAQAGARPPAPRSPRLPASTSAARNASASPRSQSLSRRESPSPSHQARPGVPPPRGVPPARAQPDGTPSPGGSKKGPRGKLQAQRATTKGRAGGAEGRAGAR
- Test Name: Kinase profiling TTBK1
- Type: biochemical
- Stated Conditions: 100 micromolar inhibitor concentration; 100 is no change; read-out: residual kinase activity, TTBK1
Quantity Name: remaining activity at 100 µM (%)
Write the value in % as a bare number.

Field: example entries. Status: answers known.
>  <Compound>
CC(=O)Nc1nc2cc(C(F)(F)F)ccc2s1 [Compound 03-73]

>  <remaining activity at 100 µM (%)>
94

$$$$
>  <Compound>
CC(=O)Nc1nc2ccc(C#N)cc2s1 [Compound 01-94]

>  <remaining activity at 100 µM (%)>
73

$$$$
>  <Compound>
CC(=O)Nc1nc2ccc(O)cc2s1 [Compound 01-71]

>  <remaining activity at 100 µM (%)>
61

$$$$
>  <Compound>
CC(=O)Nc1nc2cc(F)ccc2s1 [Compound 03-77]

>  <remaining activity at 100 µM (%)>
80

$$$$

Kindly note: TTBK1 (Homo sapiens, UniProt Q5TCY1), CC(=O)Nc1nc2ccc(C(F)(F)F)cc2s1 [Compound 01-90] , remaining activity at 100 µM value reported: 88

Kindly note: TTBK1 (Homo sapiens, UniProt Q5TCY1), COc1ccc2sc(NC(C)=O)nc2c1 [Compound 03-21] , remaining activity at 100 µM value reported: 93
